Test: in vitro
Conditions: human, IC50 etoposide-induced growth inhibition, etoposide alone
pIC50: −log10 of the molar value.

molecule	pIC50
COc1cc([C@@H]2c3cc4c(cc3[C@@H](O[C@@H]3O[C@@H]5CO[C@@H](C)O[C@H]5[C@H](O)[C@H]3O)[C@H]3COC(=O)[C@H]23)OCO4)cc(OC)c1O [etoposide]	6.02

* * *

Test: in vitro
Settings: human, IC50 etoposide-induced growth inhibition, co-treated with 10 nM HN2
experimental_endpoint: IC50 (nM)

molecule	val
COc1cc([C@@H]2c3cc4c(cc3[C@@H](O[C@@H]3O[C@@H]5CO[C@@H](C)O[C@H]5[C@H](O)[C@H]3O)[C@H]3COC(=O)[C@H]23)OCO4)cc(OC)c1O [etoposide]	42

* * *

Test system: HEK control cells
Assay: cells
Assay type: cell-based
Conditions: Homo sapiens, read-out: IC50 etoposide-induced growth inhibition, co-treatment with 3 nM HN2

molecule	IC50 [µM]
COc1cc([C@@H]2c3cc4c(cc3[C@@H](O[C@@H]3O[C@@H]5CO[C@@H](C)O[C@H]5[C@H](O)[C@H]3O)[C@H]3COC(=O)[C@H]23)OCO4)cc(OC)c1O [etoposide]	0.047
